Molecular target: RSV F protein of subtype B strain 18537, on virus (respiratory syncytial virus subtype B …, UniProt P13843 26-574)
Sequence (P13843 26-574): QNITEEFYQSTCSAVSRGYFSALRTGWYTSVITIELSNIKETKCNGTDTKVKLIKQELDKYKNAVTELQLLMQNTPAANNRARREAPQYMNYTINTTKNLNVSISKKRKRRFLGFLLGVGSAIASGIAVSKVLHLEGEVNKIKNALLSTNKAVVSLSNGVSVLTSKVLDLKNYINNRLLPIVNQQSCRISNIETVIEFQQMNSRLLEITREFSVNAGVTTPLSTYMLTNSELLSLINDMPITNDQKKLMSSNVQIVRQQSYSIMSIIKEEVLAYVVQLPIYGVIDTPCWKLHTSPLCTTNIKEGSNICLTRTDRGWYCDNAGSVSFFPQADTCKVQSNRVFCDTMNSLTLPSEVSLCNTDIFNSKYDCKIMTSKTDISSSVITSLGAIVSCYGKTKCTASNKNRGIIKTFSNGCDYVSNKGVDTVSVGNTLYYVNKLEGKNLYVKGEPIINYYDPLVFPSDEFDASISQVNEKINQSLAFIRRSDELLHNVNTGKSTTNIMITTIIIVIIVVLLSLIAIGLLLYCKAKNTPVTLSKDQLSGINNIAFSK
Assay: cell-based or functional assay
observed_property: Neut IC50 (ug/ml) subtype B (µg/mL)
Give just the numeric value; µg/mL need not be written.

ADI-15600 (antibody, V domains shown, IgG; also called Antibody Number 166) VH: EVQLVESGGGLIQPGGSLRLSCAVSGFSVSSNYISWVRQPPGKGLEWVSVSYSSGVTDYADSVKGRFTTSRDNSKNTLYLQMNSLRGEDTAVYYCARELVPNFYESHGYFSVWGQGTLVTVSS VL: DIVMTQSPGTLSLSPGERATLSCRASQRVDSSYLAWYQQKPGQAPRLLIYGGSSRATGIPDRFSGSGSGTDFTLTISRLEPEDFALYYCQQYGFSQTFGQGTKVEIK :: 0.958
ADI-15636 (antibody, V domains shown) VH: EVQLVESGAEVKKPGSSVKVSCKASADTFSSYAISWVRQAPGQGLEWMGGILPILGTANSAQKFRGRVTFTADESTTTAYMELSSLRSEDTAVYYCARLAGPRWPGYGMDVWGQGTLVTVSS VL: DIQLTQSPSFLSASVGDRVTITCRASQGISSYLAWYQQKPGKAPKLLIYAASTLQSGVPSRFSGSGSGTEFTLTISSLQPEDFATYYCQQLNSFPLTFGGGTKVEIK :: 6.44

For ADI-15591 (antibody, V domains shown, IgG) VH: EVQLLESGGGLVKPGGSLRLSCAASGFTFSSYGMHWVRQAPGKGLEWVSSITAGSSYMDYADSVKGRFTVSRDNGKNSLYLQMNSLRAEDTAVYFCAREDYDSRVYYLKWFDPWGQGTLVTVSS VL: QSVLTQPPSVSGAPGQRVTISCTGSSSNIGTGYDVHWYQQLPGSAPKLLIYGNSNRPSGVPDRFSGSKSGTSASLAITGLQAEDEADYYCQSYDSSRSGYVFGTGTKLTVL the binder record lists Neut IC50 (ug/ml) subtype B as 0.219
